// values below are reported combination Emax
Tested on: NCI-H1694 (Small Cell Lung Carcinoma)
Assay: combination Emax (second highest fraction inhibited in the dose matrix, 72 h); higher = more inhibition; extreme values may be limits of the assay
measured_attribute: combination Emax

{"columns": ["compound", "measured_attribute", "reported_measurement"],
 "data": [
  ["COc1nnc2ccc(N3CCC(c4ccc(OCCN5CCN(C)C(=O)[C@H]5C)cc4)CC3)nn12 [AZD5153] + CCN(CCO)CCCOc1ccc2c(Nc3cc(CC(=O)Nc4cccc(F)c4)[nH]n3)ncnc2c1 [AZD2811] (first compound max 1 µM, 7x7, partner max 1 µM)", "combination Emax", 0.364],
  ["CN(CCO)CC[C@H](CSc1ccccc1)Nc1ccc(S(=O)(=O)NC(=O)c2ccc(N3CCC([C@@H](O)c4ccccc4-c4ccc(Cl)cc4)CC3)cc2)cc1S(=O)(=O)C(F)(F)F [AZD4320] + CN(C)CCCOc1ccc(-c2ccc3ncc4c(c3c2)n(C2CCOCC2)c(=O)n4C)cn1 [AZD0156] (first compound max 1 µM, 7x7, partner max 1 µM)", "combination Emax", 0.718],
  ["COc1nnc2ccc(N3CCC(c4ccc(OCCN5CCN(C)C(=O)[C@H]5C)cc4)CC3)nn12 [AZD5153] + CC1(C)CCC(CN2CCN(c3ccc(C(=O)NS(=O)(=O)c4ccc(NCC5CCOCC5)c([N+](=O)[O-])c4)c(Oc4cnc5[nH]ccc5c4)c3)CC2)=C(c2ccc(Cl)cc2)C1 [Venetoclax] (first compound max 1 µM, 7x7, partner max 1 µM)", "combination Emax", 0.551]
]}

###

Tested on: NCI-H1299 (Non-Small Cell Lung Carcinoma)
Experiment: combination Emax (second highest fraction inhibited in the dose matrix, 72 h); higher = more inhibition; extreme values may be limits of the assay
Each record's combination Emax is compared with low = under 0.3, middle = from 0.3 up to 0.8, high = 0.8 and over to give its class.

{"columns": ["compound", "answer_label"],
 "data": [
  ["CN(CCO)CC[C@H](CSc1ccccc1)Nc1ccc(S(=O)(=O)NC(=O)c2ccc(N3CCC([C@@H](O)c4ccccc4-c4ccc(Cl)cc4)CC3)cc2)cc1S(=O)(=O)C(F)(F)F [AZD4320] + C1CN(CCC1(C(=O)N[C@@H](CCO)C2=CC=C(C=C2)Cl)N)C3=NC=NC4=C3C=CN4 [Capivasertib] (first compound max 1 µM, 7x7, partner max 3 µM)", "low"],
  ["C[C@@H]1COCCN1c1cc(C2([S@](C)(=N)=O)CC2)nc(-c2ccnc3[nH]ccc23)n1 [AZD6738] + Nc1ccn([C@@H]2O[C@H](CO)[C@@H](O)C2(F)F)c(=O)n1 [Gemcitabine] (first compound max 10 µM, 7x7, partner max 0.3 µM)", "high"],
  ["NC1(C(=O)N[C@@H](CCO)c2ccc(Cl)cc2)CCN(c2ncnc3[nH]ccc23)CC1 [Capivasertib] + Cn1cnc2c(F)c(Nc3ccc(Br)cc3Cl)c(C(=O)NOCCO)cc21 [Selumetinib] (first compound max 10 µM, 7x7, partner max 10 µM)", "middle"],
  ["N#Cc1cnc(Nc2cc(NC[C@H]3CNCCO3)c(C(F)(F)F)cn2)cn1 [SRA737] + CCc1c2c(nc3ccc(O)cc13)-c1cc3c(c(=O)n1C2)COC(=O)[C@]3(O)CC [SN-38] (first compound max 10 µM, 7x7, partner max 0.3 µM)", "middle"],
  ["Cc1c2c(nn1C)CSCc1cc(n(C)n1)CSc1cc(c3ccccc3c1)OCCCc1c(C(=O)O)n(C)c3c-2c(Cl)ccc13 [AZD5991] + C=CCn1c(=O)c2cnc(Nc3ccc(N4CCN(C)CC4)cc3)nc2n1-c1cccc(C(C)(C)O)n1 [AZD1775] (first compound max 1 µM, partner max 1 µM)", "high"],
  ["CS(=O)(=O)CCNCc1ccc(-c2ccc3ncnc(Nc4ccc(OCc5cccc(F)c5)c(Cl)c4)c3c2)o1 [Lapatinib] + NC1(c2ccc(-c3nc4ccn5c(=O)[nH]nc5c4cc3-c3ccccc3)cc2)CCC1 [MK-2206] (first compound max 10 µM, 7x7, partner max 10 µM)", "middle"],
  ["CN(CCO)CC[C@H](CSc1ccccc1)Nc1ccc(S(=O)(=O)NC(=O)c2ccc(N3CCC([C@@H](O)c4ccccc4-c4ccc(Cl)cc4)CC3)cc2)cc1S(=O)(=O)C(F)(F)F [AZD4320] + CCN(CCO)CCCOc1ccc2c(Nc3cc(CC(=O)Nc4cccc(F)c4)[nH]n3)ncnc2c1 [AZD2811] (first compound max 1 µM, 7x7, partner max 1 µM)", "low"],
  ["C=CCn1c(=O)c2cnc(Nc3ccc(N4CCN(C)CC4)cc3)nc2n1-c1cccc(C(C)(C)O)n1 [AZD1775] + CCc1c2c(nc3ccc(O)cc13)-c1cc3c(c(=O)n1C2)COC(=O)[C@]3(O)CC [SN-38] (first compound max 1 µM, partner max 0.3 µM)", "middle"],
  ["CC(=O)c1c(C)c2cnc(Nc3ccc(N4CCNCC4)cn3)nc2n(C2CCCC2)c1=O [Palbociclib] + CC1(C)CCC(CN2CCN(c3ccc(C(=O)NS(=O)(=O)c4ccc(NCC5CCOCC5)c([N+](=O)[O-])c4)c(Oc4cnc5[nH]ccc5c4)c3)CC2)=C(c2ccc(Cl)cc2)C1 [Venetoclax] (first compound max 10 µM, 7x7, partner max 1 µM)", "middle"],
  ["CC1(C)CCC(CN2CCN(c3ccc(C(=O)NS(=O)(=O)c4ccc(NCC5CCOCC5)c([N+](=O)[O-])c4)c(Oc4cnc5[nH]ccc5c4)c3)CC2)=C(c2ccc(Cl)cc2)C1 [Venetoclax] + CS(=O)(=O)CCNCc1ccc(-c2ccc3ncnc(Nc4ccc(OCc5cccc(F)c5)c(Cl)c4)c3c2)o1 [Lapatinib] (first compound max 1 µM, 7x7, partner max 10 µM)", "low"],
  ["O=C(c1cc(Cc2n[nH]c(=O)c3ccccc23)ccc1F)N1CCN(C(=O)C2CC2)CC1 [Olaparib] + CN(CC[C@H](CSC1=CC=CC=C1)NC2=C(C=C(C=C2)S(=O)(=O)NC(=O)C3=CC=C(C=C3)N4CCC(CC4)[C@H](C5=CC=CC=C5C6=CC=C(C=C6)Cl)O)S(=O)(=O)C(F)(F)F)CCO [AZD4320] (first compound max 10 µM, 7x7, partner max 1 µM)", "low"]
]}

###

Test system: SW1783 (Low Grade Glioma)
Experiment: combination Emax (second highest fraction inhibited in the dose matrix, 72 h); higher = more inhibition; extreme values may be limits of the assay
// reported combination Emax per item

{"columns": ["molecule", "combination Emax"],
 "data": [
  ["CS(=O)(=O)CCNCc1ccc(-c2ccc3ncnc(Nc4ccc(OCc5cccc(F)c5)c(Cl)c4)c3c2)o1 [Lapatinib] + NC1(c2ccc(-c3nc4ccn5c(=O)[nH]nc5c4cc3-c3ccccc3)cc2)CCC1 [MK-2206] (first compound max 10 µM, 7x7, partner max 10 µM)", 0.395],
  ["N#Cc1cnc(Nc2cc(NC[C@H]3CNCCO3)c(C(F)(F)F)cn2)cn1 [SRA737] + Nc1ccn([C@@H]2O[C@H](CO)[C@@H](O)C2(F)F)c(=O)n1 [Gemcitabine] (first compound max 10 µM, 7x7, partner max 0.3 µM)", 0.729],
  ["Cc1cc2ncnn2cc1Nc1ncc2c(n1)n(C1CCOCC1)c(=O)n2C [AZD7648] + C=CCn1c(=O)c2cnc(Nc3ccc(N4CCN(C)CC4)cc3)nc2n1-c1cccc(C(C)(C)O)n1 [AZD1775] (first compound max 10 µM, partner max 1 µM)", 0.322],
  ["C[C@@H](Oc1cc(-c2cnn(C3CCNCC3)c2)cnc1N)c1c(Cl)ccc(F)c1Cl [Crizotinib] + CC1=C(C(=CC=C1)Cl)NC(=O)C2=CN=C(S2)NC3=CC(=NC(=N3)C)N4CCN(CC4)CCO [Dasatinib] (first compound max 10 µM, 7x7, partner max 2 µM)", 0.784],
  ["COc1nnc2ccc(N3CCC(c4ccc(OCCN5CCN(C)C(=O)[C@H]5C)cc4)CC3)nn12 [AZD5153] + CCN(CCO)CCCOc1ccc2c(Nc3cc(CC(=O)Nc4cccc(F)c4)[nH]n3)ncnc2c1 [AZD2811] (first compound max 1 µM, 7x7, partner max 1 µM)", 0.328],
  ["Cc1cc2ncnn2cc1Nc1ncc2c(n1)n(C1CCOCC1)c(=O)n2C [AZD7648] + COc1cc([C@@H]2c3cc4c(cc3[C@@H](O[C@@H]3O[C@@H]5CO[C@@H](C)O[C@H]5[C@H](O)[C@H]3O)[C@H]3COC(=O)[C@H]23)OCO4)cc(OC)c1O [Etoposide] (first compound max 10 µM, 7x7, partner max 10 µM)", 0.706],
  ["CN(CCO)CC[C@H](CSc1ccccc1)Nc1ccc(S(=O)(=O)NC(=O)c2ccc(N3CCC([C@@H](O)c4ccccc4-c4ccc(Cl)cc4)CC3)cc2)cc1S(=O)(=O)C(F)(F)F [AZD4320] + CCN(CCO)CCCOc1ccc2c(Nc3cc(CC(=O)Nc4cccc(F)c4)[nH]n3)ncnc2c1 [AZD2811] (first compound max 1 µM, 7x7, partner max 1 µM)", 0.412],
  ["CCN(CCO)CCCOc1ccc2c(Nc3cc(CC(=O)Nc4cccc(F)c4)[nH]n3)ncnc2c1 [AZD2811] + C=CCn1c(=O)c2cnc(Nc3ccc(N4CCN(C)CC4)cc3)nc2n1-c1cccc(C(C)(C)O)n1 [AZD1775] (first compound max 1 µM, partner max 1 µM)", 0.193],
  ["CC(=O)Nc1cccc(-n2c(=O)n(C3CC3)c(=O)c3c(Nc4ccc(I)cc4F)n(C)c(=O)c(C)c32)c1 [Trametinib] + Cc1nc(-c2cn3c(n2)-c2ccc(-c4cnn(C(C)(C)C(N)=O)c4)cc2OCC3)n(C(C)C)n1 [Taselisib] (first compound max 1 µM, 7x7, partner max 10 µM)", 0.7],
  ["Cc1nc(-c2cn3c(n2)-c2ccc(-c4cnn(C(C)(C)C(N)=O)c4)cc2OCC3)n(C(C)C)n1 [Taselisib] + O=C(Nc1ccc2[nH]nc(-c3ccncc3)c2c1)[C@@H]1CCN(CC(=O)N2CCN(c3ccc(-c4ncccn4)cc3)CC2)C1 [SCH772984] (first compound max 10 µM, 7x7, partner max 5 µM)", 0.643],
  ["CC1(C)CCC(CN2CCN(c3ccc(C(=O)NS(=O)(=O)c4ccc(NCC5CCOCC5)c([N+](=O)[O-])c4)c(Oc4cnc5[nH]ccc5c4)c3)CC2)=C(c2ccc(Cl)cc2)C1 [Venetoclax] + CN(C)CCCOc1ccc(-c2ccc3ncc4c(c3c2)n(C2CCOCC2)c(=O)n4C)cn1 [AZD0156] (first compound max 1 µM, 7x7, partner max 1 µM)", 0.24],
  ["COc1cc2c(cc1OCCCCCOc1cc3c(cc1OC)C(=O)N1C=C(C)C[C@H]1C=N3)N=C[C@@H]1CC(C)=CN1C2=O [SG3199] + O=C(c1cc(Cc2n[nH]c(=O)c3ccccc23)ccc1F)N1CCN(C(=O)C2CC2)CC1 [Olaparib] (first compound max 0.001 µM, 7x7, partner max 10 µM)", 0.0897],
  ["Cc1c2c(nn1C)CSCc1cc(n(C)n1)CSc1cc(c3ccccc3c1)OCCCc1c(C(=O)O)n(C)c3c-2c(Cl)ccc13 [AZD5991] + CCN(CCO)CCCOc1ccc2c(Nc3cc(CC(=O)Nc4cccc(F)c4)[nH]n3)ncnc2c1 [AZD2811] (first compound max 1 µM, 7x7, partner max 1 µM)", 0.246]
]}
